B1: library; a variant is named by its letters at N, in order (parent)
chain: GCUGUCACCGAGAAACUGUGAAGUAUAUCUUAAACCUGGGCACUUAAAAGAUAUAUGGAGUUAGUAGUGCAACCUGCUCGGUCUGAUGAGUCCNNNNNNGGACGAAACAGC

Variants of: B1
Procedure text: normalized RNA/DNA level without ligand (relative to sTRSVctl = 100) (log10 (% of sTRSVctl)); HEK293T; ligand: cyclic di-GMP (c-di-GMP-II aptamer); higher = less ribozyme self-cleavage, higher mRNA level
Test conditions: reporter: mCherry (pCS4076), ligand present: no
Please respond with reported normalized RNA/DNA level without ligand (log10) for every item in the list.

Query :: Field request: normalized RNA/DNA level without ligand (log10) | item: "GUGGAG"
Result :: 1.61

Query :: Field request: normalized RNA/DNA level without ligand (log10) | item: "CCCUAC"
Result :: 1.71

Query :: Field request: normalized RNA/DNA level without ligand (log10) | item: "CAUCGG"
Result :: 1.78

Query :: Field request: normalized RNA/DNA level without ligand (log10) | item: "ACGGAG"
Result :: 1.46

Query :: Field request: normalized RNA/DNA level without ligand (log10) | item: "ACGGGU"
Result :: 1.42

Query :: Field request: normalized RNA/DNA level without ligand (log10) | item: "UAGUUA"
Result :: 1.67

Query :: Field request: normalized RNA/DNA level without ligand (log10) | item: "AGUUGU"
Result :: 1.66

Query :: Field request: normalized RNA/DNA level without ligand (log10) | item: "UUUAUU"
Result :: 1.72

Query :: Field request: normalized RNA/DNA level without ligand (log10) | item: "CGGUCA"
Result :: 1.45

Query :: Field request: normalized RNA/DNA level without ligand (log10) | item: "AGUUGC"
Result :: 1.67

Query :: Field request: normalized RNA/DNA level without ligand (log10) | item: "AUAAAC"
Result :: 1.65

Query :: Field request: normalized RNA/DNA level without ligand (log10) | item: "UCACGG"
Result :: 1.82

Query :: Field request: normalized RNA/DNA level without ligand (log10) | item: "UAACUA"
Result :: 1.69

Query :: Field request: normalized RNA/DNA level without ligand (log10) | item: "CGACUG"
Result :: 1.7

Query :: Field request: normalized RNA/DNA level without ligand (log10) | item: "CCAGCU"
Result :: 1.68

Query :: Field request: normalized RNA/DNA level without ligand (log10) | item: "CUGGGU"
Result :: 1.71

Query :: Field request: normalized RNA/DNA level without ligand (log10) | item: "UCUAGA"
Result :: 1.74

Query :: Field request: normalized RNA/DNA level without ligand (log10) | item: "UUUCUA"
Result :: 1.75

Query :: Field request: normalized RNA/DNA level without ligand (log10) | item: "ACUAGC"
Result :: 1.6

Query :: Field request: normalized RNA/DNA level without ligand (log10) | item: "AGCAGC"
Result :: 1.72

Query :: Field request: normalized RNA/DNA level without ligand (log10) | item: "UCUCAA"
Result :: 1.66

Query :: Field request: normalized RNA/DNA level without ligand (log10) | item: "CUUUUU"
Result :: 1.61
